# run_description: Quantitative High-Throughput drug screen in 47 multiple myeloma cell lines against the NCATS MIPE library collection: Karpas417_ECACC cell viability assay (AID 1918961)
# assay_setup: Karpas417 myeloma viability, CellTiter-Glo ATP luminescence, 48 h
Inconclusive results are not listed. The source made the active and inactive calls. The call rests on the fitted dose curve; in most records, active means well fitted cell-killing curve with a large enough effect; inconclusive means small, poorly fitted or top-dose-only effect, or effect the other way; inactive means no such curve, though single readings can be large or run the other way.
Please state which outcome applies, choosing from active, inactive

{"columns": ["smiles_data", "classification"],
 "data": [
  ["S=C(NCc1ccc2c(c1)OCO2)N1CCN(c2ncnc3c2oc2ccccc23)CC1", "active"],
  ["Cn1cnc([N+](=O)[O-])c1Sc1ncnc2nc[nH]c12", "inactive"],
  ["CS(=O)(=O)c1cccc(CNc2nc(Nc3ccc4c(c3)CCC(=O)N4)ncc2C(F)(F)F)c1", "active"]
]}

(Q) What was the test verdict on O=C(O)CCc1ccc(NCc2cccc(Oc3ccccc3)c2)cc1 ?
(A) inactive

(Q) What was the test verdict on Fc1ccc(Cl)cc1-c1nc(Nc2ccncc2)c2nccnc2n1 ?
(A) inactive
